target_desc: human L1 EN domain (1-239) (Homo sapiens (Human))
assay_explanation: plasmid nicking L1 EN activity biochemical assay
assay_conditions: plasmid nicking assay
Please use 1 whenever Biochemical assay: maximum inhibition is not below 90 % inhibition at, and -1 whenever it is.

>>> class_assignment("Nn1cnn2c(SCC(=O)Cc3ccc(-c4nc5cc(NC(=O)CSc6nnc7n(N)cnn67)ccc5o4)cc3)nnc12")
-1
>>> class_assignment("O=C(NC(NC(=O)c1ccccc1)c1cccc([N+](=O)[O-])c1)c1ccccc1")
1
>>> class_assignment("COc1ccccc1NC(=O)Nc1nc(Nc2ccc(S(=O)(=O)Nc3nc(C)cc(C)n3)cc2)nc(Oc2cccc(O)c2)n1")
-1
>>> class_assignment("C[C@H]1C[C@H](C)CN(CCCNc2ccc(C(=O)Nc3ccc(C(F)(F)F)cc3)cc2[N+](=O)[O-])C1")
-1
>>> class_assignment("O=C(Nc1ccc(S(=O)(=O)NCc2ccco2)cc1)c1cc(NS(=O)(=O)c2cccs2)cc(NS(=O)(=O)c2cccs2)c1")
-1
>>> class_assignment("CCC1=C(C)CN(C(=O)NCCc2ccc(S(=O)(=O)NC(=O)N[C@H]3CC[C@H](C)CC3)cc2)C1=O [AD15, Glimepiride, reference compound]")
1

---

target_desc: human L1 EN domain (1-239) (Homo sapiens (Human), UniProt O00370)
Sequence (O00370 1-239): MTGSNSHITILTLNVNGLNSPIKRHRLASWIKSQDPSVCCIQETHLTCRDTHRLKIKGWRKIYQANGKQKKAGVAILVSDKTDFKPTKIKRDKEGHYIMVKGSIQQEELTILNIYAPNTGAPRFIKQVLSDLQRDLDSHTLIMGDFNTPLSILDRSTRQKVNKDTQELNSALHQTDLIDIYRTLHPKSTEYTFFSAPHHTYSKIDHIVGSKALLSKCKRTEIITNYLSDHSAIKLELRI
assay_explanation: plasmid nicking L1 EN activity biochemical assay
parameter_measured: Biochemical assay: concentration at maximum inhibition

>>> measured("O=[N+]([O-])c1ccc(Nc2ccc(Nc3ccccc3)c(S(=O)(=O)O)c2)c([N+](=O)[O-])c1 [AD4]")
"1 mM FIG. 2D"
>>> measured("C[C@@H](Nc1ccc([N+](=O)[O-])cc1[N+](=O)[O-])C(=O)O [AD8]")
"15 mM FIG. 2G"
>>> measured("O=C1c2ccc(Oc3ccc4c(c3)C(=O)N(Nc3ccc([N+](=O)[O-])cc3[N+](=O)[O-])C4=O)cc2C(=O)N1Nc1ccc([N+](=O)[O-])cc1[N+](=O)[O-] [AD13]")
"500 μM FIG. 2L"
>>> measured("C/C(C[C@H](c1ccccc1)c1c(O)c2ccccc2oc1=O)=N\\Nc1ccc([N+](=O)[O-])cc1[N+](=O)[O-] [AD3]")
"250 μM FIG. 2C"

---

target_desc: human L1 EN domain (1-239) (Homo sapiens (Human), UniProt O00370)
assay_explanation: plasmid nicking L1 EN activity biochemical assay
Entries and their Biochemical assay: concentration at maximum inhibition
parameter_measured: Biochemical assay: concentration at maximum inhibition

>>> measured("Cc1cc(=O)oc2c3c(ccc12)O/C(=N/Nc1ccc([N+](=O)[O-])cc1[N+](=O)[O-])C3=O")
"50 μM FIG. 2E"
>>> measured("O=C(O)[C@H](CCCCNc1ccc([N+](=O)[O-])cc1[N+](=O)[O-])Nc1ccc([N+](=O)[O-])cc1[N+](=O)[O-]")
"1 mM FIG. 2B"
>>> measured("C/C(=N/Nc1ccc([N+](=O)[O-])cc1[N+](=O)[O-])c1ccc(-n2nncc2C(C)(C)C)cc1")
"500 μM FIG. 2F"
>>> measured("O=C(CCCCCCCCCCC(=O)Nc1cccc([N+](=O)[O-])c1)Nc1cccc([N+](=O)[O-])c1")
"10.0 μM FIG. 2J"

---

target_desc: human L1 EN domain (1-239) (Homo sapiens (Human))
assay_explanation: plasmid nicking L1 EN activity biochemical assay
assay_conditions: plasmid nicking assay
Entries and their Biochemical assay: concentration at maximum inhibition
parameter_measured: Biochemical assay: concentration at maximum inhibition

>>> measured("O=C(Nc1ccc(S(=O)(=O)NCc2ccco2)cc1)c1cc(NS(=O)(=O)c2cccs2)cc(NS(=O)(=O)c2cccs2)c1 [AD18]")
"750 μM FIG. 2Q"
>>> measured("Cc1cc([N+](=O)[O-])ccc1NC(=S)NC(=O)C(c1ccccc1)c1ccccc1 [AD6]")
"750 μM FIG. 2F"
>>> measured("CCC1=C(C)CN(C(=O)NCCc2ccc(S(=O)(=O)NC(=O)N[C@H]3CC[C@H](C)CC3)cc2)C1=O [AD15, Glimepiride, reference compound]")
"2.5 mM FIG. 2N"
>>> measured("O=C(NC(NC(=O)c1ccccc1)c1cccc([N+](=O)[O-])c1)c1ccccc1 [AD10]")
"100 μM FIG. 21"
>>> measured("Nn1cnn2c(SCC(=O)Cc3ccc(-c4nc5cc(NC(=O)CSc6nnc7n(N)cnn67)ccc5o4)cc3)nnc12 [AD16]")
"500 μM FIG. 20"
>>> measured("C[C@H]1C[C@H](C)CN(CCCNc2ccc(C(=O)Nc3ccc(C(F)(F)F)cc3)cc2[N+](=O)[O-])C1 [AD9]")
"750 μM FIG. 2H"
>>> measured("COc1ccccc1NC(=O)Nc1nc(Nc2ccc(S(=O)(=O)Nc3nc(C)cc(C)n3)cc2)nc(Oc2cccc(O)c2)n1 [AD19]")
"250 μM FIG. 2R"

src = patent US20240207249A1
